pIC50: −log10 of the molar value.
The following are reported pIC50 results, target or system Human immunodeficiency virus type 1 integrase (Human immunodeficiency virus 1).
ASSAY_READOUT: pIC50

• O=C(NCc1ccc(F)cc1)c1nc2c(Br)cc(N3CCOCC3)cn2c(=O)c1O = 6.89
• O=C(NCc1ccc(F)cc1)c1nc2c(OCC3CC3)cc(N3CCOCC3)cn2c(=O)c1O = 6.37
• O=C(NCc1ccc(F)cc1)c1nc2sc(N3CCOCC3)cn2c(=O)c1O = 5.95
• O=C(NCc1cc(Cl)cc(Cl)c1)c1nc2c(N3CCCS3(=O)=O)cc(N3CCOCC3)cn2c(=O)c1O = 6.89
• O=C(NCc1ccc(F)cc1)c1nc2ccc(N3CCOCC3)cn2c(=O)c1O = 7.10
• Cn1ccn2c(=O)c(O)c(C(=O)NCc3ccc(F)cc3)nc12 = 7.11
• CC(C)Oc1cc(N2CCOCC2)cn2c(=O)c(O)c(C(=O)NCc3ccc(F)cc3)nc12 = 6.61
• O=C(NCc1ccc(F)cc1)c1nc2ccccn2c(=O)c1O = 6.23
